FYI, the data here is from ChEMBL document CHEMBL4261603.

testMethodNotes: Efflux ratio of apparent permeability across […] to apical side in human Caco2 cells at 20 uM
Assay type: ADME, cell-based
measurementParameters: Caco-2

entrySmiles: C[C@H]1[C@@H](OCCN2CCN(c3ccc(C(=O)NS(=O)(=O)c4ccc(NCC5CCOCC5)c([N+](=O)[O-])c4)c(Oc4cnc5[nH]ccc5c4)c3)CC2)O[C@@H]2O[C@@]3(C)CC[C@H]4[C@H](C)CC[C@@H]1[C@@]24OO3
efflux ratio at 20 µM: 28.8

====

assayTarget: Apoptosis regulator Bcl-2 (Homo sapiens, UniProt P10415)
Sequence (P10415 whole entry): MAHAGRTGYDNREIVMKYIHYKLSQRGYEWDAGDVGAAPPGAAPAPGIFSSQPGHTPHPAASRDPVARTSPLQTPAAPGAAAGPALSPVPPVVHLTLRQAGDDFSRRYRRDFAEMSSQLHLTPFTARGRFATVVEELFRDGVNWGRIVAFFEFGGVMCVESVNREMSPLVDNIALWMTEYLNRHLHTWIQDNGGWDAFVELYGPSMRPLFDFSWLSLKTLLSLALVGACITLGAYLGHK
Lab note: anything with IC50 below 2 nM is marked 1; values at 2 nM or higher are marked -1.

compound: C[C@@H]1CC[C@H]2[C@@H](C)C(OCCNC3CCN(c4ccc(C(=O)NS(=O)(=O)c5ccc(NCC6CCOCC6)c([N+](=O)[O-])c5)c(Oc5cnc6[nH]ccc6c5)c4)CC3)O[C@@H]3O[C@@]4(C)CC[C@@H]1[C@]32OO4 (stereo not given in full)
assayTarget: Apoptosis regulator Bcl-2 (Homo sapiens, UniProt P10415)
classification: 1

compound: CO[C@H]1OC2O[C@@]3(C)CC[C@H]4[C@H](C)CC[C@@H]([C@]1(C)CC(=O)N1CCN(c5ccc(C(=O)NS(=O)(=O)c6ccc(NCC7CCOCC7)c([N+](=O)[O-])c6)c(Oc6cnc7[nH]ccc7c6)c5)CC1)[C@@]24OO3 (stereo not given in full)
assayTarget: Apoptosis regulator Bcl-2 (Homo sapiens, UniProt P10415)
classification: -1

compound: C[C@@H]1CC[C@@H]2[C@]34OO[C@](C)(CC[C@@H]13)O[C@H]4O[C@]2(C)C(=O)N1CCN(c2ccc(C(=O)NS(=O)(=O)c3ccc(NCC4CCOCC4)c([N+](=O)[O-])c3)c(Oc3cnc4[nH]ccc4c3)c2)CC1
assayTarget: Apoptosis regulator Bcl-2 (Homo sapiens, UniProt P10415)
classification: -1

compound: C[C@@H]1CC[C@H]2[C@@H](C)C(OCCN3CCN(c4ccc(C(=O)NS(=O)(=O)c5ccc(NCC6CCOCC6)c([N+](=O)[O-])c5)c(Oc5cnc6[nH]ccc6c5)c4)C[C@@H]3CO)O[C@@H]3O[C@@]4(C)CC[C@@H]1[C@]32OO4 (stereo not given in full)
assayTarget: Apoptosis regulator Bcl-2 (Homo sapiens, UniProt P10415)
classification: -1

compound: C[C@H]1[C@@H](CCN2CCN(c3ccc(C(=O)NS(=O)(=O)c4ccc(NCC5CCOCC5)c([N+](=O)[O-])c4)c(Oc4cnc5[nH]ccc5c4)c3)CC2)O[C@@H]2O[C@@]3(C)CC[C@H]4[C@H](C)CC[C@@H]1[C@@]24O3
assayTarget: Apoptosis regulator Bcl-2 (Homo sapiens, UniProt P10415)
classification: 1

====

testMethodNotes: Apparent permeability across basolateral to apical side in human Caco2 cells at 20 uM
Assay type: ADME, cell-based
measurementParameters: Caco-2

entrySmiles: C[C@H]1[C@@H](OCCN2CCN(c3ccc(C(=O)NS(=O)(=O)c4ccc(NCC5CCOCC5)c([N+](=O)[O-])c4)c(Oc4cnc5[nH]ccc5c4)c3)CC2)O[C@@H]2O[C@@]3(C)CC[C@H]4[C@H](C)CC[C@@H]1[C@@]24OO3
Papp B→A at 20 µM [×10⁻⁶ cm/s]: 6.07

====

Organism: Homo sapiens
testMethodNotes: Selectivity factor, ratio of IC50 for Bcl-xL (unknown origin) to Bcl2 (unknown origin)

entrySmiles: C[C@H]1[C@@H](CC(=O)N2CCN(c3ccc(C(=O)NS(=O)(=O)c4ccc(NCC5CCOCC5)c([N+](=O)[O-])c4)c(Oc4cnc5[nH]ccc5c4)c3)CC2)O[C@@H]2O[C@]3(C)O[C@]24[C@H]1CC[C@@H](C)[C@@H]4C[C@H]3O
boundType: =
Ratio IC50: 15.3
//
entrySmiles: C[C@H]1[C@H](N(C)CCN2CCN(c3ccc(C(=O)NS(=O)(=O)c4ccc(NCC5CCOCC5)c([N+](=O)[O-])c4)c(Oc4cnc5[nH]ccc5c4)c3)CC2)O[C@@H]2O[C@@]3(C)CC[C@H]4[C@H](C)CC[C@@H]1[C@@]24OO3
boundType: >
Ratio IC50: 59.9
//
entrySmiles: C[C@H]1[C@@H](OCCN2CCN(c3ccc(C(=O)NS(=O)(=O)c4ccc(NCC5CCOCC5)c([N+](=O)[O-])c4)c(Oc4cnc5[nH]ccc5c4)c3)CC2)O[C@@H]2O[C@@]3(C)CC[C@H]4[C@H](C)CC[C@@H]1[C@@]24O3
boundType: =
Ratio IC50: 280
//
entrySmiles: C[C@H]1[C@@H](CCN2CCN(c3ccc(C(=O)NS(=O)(=O)c4ccc(NCC5CCOCC5)c([N+](=O)[O-])c4)c(Oc4cnc5[nH]ccc5c4)c3)CC2)O[C@@H]2O[C@@]3(C)CC[C@H]4[C@H](C)CC[C@@H]1[C@@]24O3
boundType: >
Ratio IC50: 546
//
entrySmiles: C[C@H]1[C@@H](CCN2CCN(c3ccc(C(=O)NS(=O)(=O)c4ccc(NCC5CCOCC5)c([N+](=O)[O-])c4)c(Oc4cnc5[nH]ccc5c4)c3)CC2)O[C@@H]2O[C@@]3(C)CC[C@H]4[C@H](C)CC[C@@H]1[C@@]24OO3
boundType: >
Ratio IC50: 103
//
entrySmiles: C[C@H]1[C@@H](OCCN2CCN(c3ccc(C(=O)NS(=O)(=O)c4ccc(NCC5CCOCC5)c([N+](=O)[O-])c4)c(Oc4cnc5[nH]ccc5c4)c3)CC2)O[C@@H]2O[C@@]3(C)CC[C@H]4[C@H](C)CC[C@@H]1[C@@]24OO3
boundType: =
Ratio IC50: 55.3
//
entrySmiles: C[C@@H]1CC[C@@H]2[C@]34OO[C@](C)(CC[C@@H]13)O[C@H]4O[C@]2(C)C(=O)N1CCN(c2ccc(C(=O)NS(=O)(=O)c3ccc(NCC4CCOCC4)c([N+](=O)[O-])c3)c(Oc3cnc4[nH]ccc4c3)c2)CC1
boundType: =
Ratio IC50: 39.2
//
entrySmiles: C[C@H]1[C@@H](CCCN2CCN(c3ccc(C(=O)NS(=O)(=O)c4ccc(NCC5CCOCC5)c([N+](=O)[O-])c4)c(Oc4cnc5[nH]ccc5c4)c3)CC2)O[C@@H]2O[C@@]3(C)CC[C@H]4[C@H](C)CC[C@@H]1[C@@]24OO3
boundType: >
Ratio IC50: 806
//
entrySmiles: C[C@H]1[C@@H](CC(=O)N2CCN(c3ccc(C(=O)NS(=O)(=O)c4ccc(NCC5CCOCC5)c([N+](=O)[O-])c4)c(Oc4cnc5[nH]ccc5c4)c3)CC2)O[C@@H]2O[C@@]3(C)CC[C@H]4[C@H](C)CC[C@@H]1[C@@]24OO3
boundType: =
Ratio IC50: 9.16
//
entrySmiles: C[C@@H]1CC[C@H]2C(CN3CCN(c4ccc(C(=O)NS(=O)(=O)c5ccc(NCC6CCOCC6)c([N+](=O)[O-])c5)c(Oc5cnc6[nH]ccc6c5)c4)CC3)=C(C(F)(F)F)O[C@@H]3O[C@@]4(C)CC[C@@H]1[C@]32O4
boundType: =
Ratio IC50: 343
//
entrySmiles: C[C@@H]1CC[C@H]2C(CN3CCN(c4ccc(C(=O)NS(=O)(=O)c5ccc(NCC6CCOCC6)c([N+](=O)[O-])c5)c(Oc5cnc6[nH]ccc6c5)c4)CC3)=C(C(F)(F)F)O[C@@H]3O[C@@]4(C)CC[C@@H]1[C@]32OO4
boundType: =
Ratio IC50: 11.7
